protocol: Inhibition of dynamin1-mediated endocytosis in human U2OS cells assessed as inhibition of Texas red-Tf uptake incubated for 30 mins prior to Texas red-Tf addition measured after 8 mins by receptor-mediated endocytosis assay
measuredEndpoint: IC50

O=C1N=C(S)SC1=Cc1cc(Cl)cc(Cl)c1 | 18.1 µM
C=CCN1C(=O)/C(=C/c2ccc(OCCCN(C)C)cc2)SC1=S | 5.9 µM

Value of measured IC50 for the entry O=C(O)CN1C(=O)/C(=C/c2csc3ccc(Cl)cc23)SC1=S : > 100 µM
